The origin of these recorded values is ChEMBL document CHEMBL4130613.

# Test system: Klebsiella pneumoniae
# Method: Antibacterial activity against NDM-1 positive Klebsiella pneumoniae ATCC BAA-2146 after 18 hrs by agar dilution method
# Assay type: functional
# Recorded Conditions: ATCC BAA-2146, 18 h
Measurement Name: MIC

Query: Fetch value of MIC on Klebsiella pneumoniae for CNC(=N)NCCC/C=C/CCC[C@H](C)C[C@H](C)[C@H]1OC(=O)[C@H](C)[C@H](O)/C=C/[C@H](C)[C@H](O)C[C@H](O)[C@H](C)[C@@H](O)CC[C@H](C)[C@H](O)C[C@]2(O)O[C@H](C[C@@H](O)C[C@H](OC(=O)CC(=O)O)C[C@@H](O)[C@H](C)[C@H](O)/C=C/C=C/[C@@H]1C)C[C@H](O)[C@H]2O .
Response: > 64 µg/mL

###

# Test system: Escherichia coli
# Method: Antibacterial activity against extended-spectrum beta-lactamase-negative Escherichia coli 1515 after 18 hrs by agar dilution method
# Format: functional
# Recorded Conditions: Escherichia coli, 1515, 18 h
Measurement Name: MIC

Query: Output measured MIC for this item: CNC(=N)NCCC/C=C/CCC[C@H](C)C[C@H](C)[C@H]1OC(=O)[C@H](C)[C@H](O)/C=C/[C@H](C)[C@H](O)C[C@H](O)[C@H](C)[C@@H](O)CC[C@H](C)[C@H](O)C[C@]2(O)O[C@H](C[C@@H](O)C[C@H](OC(=O)CC(=O)O)C[C@@H](O)[C@H](C)[C@H](O)/C=C/C=C/[C@@H]1C)C[C@H](OC(=O)CC(=O)O)[C@H]2O
Response: > 64 µg/mL

###

I'd be grateful if you could share measured MIC for these entries.
# Test system: Escherichia coli
# Method: Antibacterial activity against extended-spectrum beta-lactamase-positive Escherichia coli 12-15 after 18 hrs by agar dilution method
# Format: functional
# Recorded Conditions: 12-15, 18 h

1) CNC(=N)NCCC/C=C/CCC[C@H](C)C[C@H](C)[C@H]1OC(=O)[C@H](C)[C@H](O)/C=C/[C@H](C)[C@H](O)C[C@H](O)[C@H](C)[C@@H](O)CC[C@H](C)[C@H](O)C[C@]2(O)O[C@H](C[C@@H](OC(=O)CC(=O)O)C[C@H](O)C[C@@H](O)[C@H](C)[C@H](O)/C=C/C=C/[C@@H]1C)C[C@H](OC(=O)CC(=O)O)[C@H]2O | > 64 mg/L

List MIC for every entry below, keeping the order given.
1. CNC(=N)NCCC/C=C/CCC[C@H](C)C[C@H](C)[C@H]1OC(=O)[C@H](C)[C@H](O)/C=C/[C@H](C)[C@H](O)C[C@H](O)[C@H](C)[C@@H](O)CC[C@H](C)[C@H](OC(=O)CC(=O)O)C[C@]2(O)O[C@H](C[C@@H](OC(=O)CC(=O)O)C[C@H](O)C[C@@H](O)[C@H](C)[C@H](O)/C=C/C=C/[C@@H]1C)C[C@H](O)[C@H]2O
2. CNC(=N)NCCC/C=C/CCC[C@H](C)C[C@H](C)[C@H]1OC(=O)[C@H](C)[C@H](O)/C=C/[C@H](C)[C@H](O)C[C@H](O)[C@H](C)[C@@H](O)CC[C@H](C)[C@H](O)C[C@]2(O)O[C@H](C[C@@H](O)C[C@H](OC(=O)CC(=O)O)C[C@@H](O)[C@H](C)[C@H](O)/C=C/C=C/[C@@H]1C)C[C@H](O)[C@H]2O

Response:
1: > 64 mg/L; 2: > 64 mg/L
